target under test: Small conductance calcium-activated potassium channel (Rattus norvegicus) (UniProt P70604+P70606+P70605)
test description: The ratio of compound concentrations and dequalinium that cause 50% inhibition of the after-hyperpolarization
Assay type: functional
EMR reference
The reply should be a number, written without any unit.

// below: answered compounds
molecule | EMR
c1ccc2c(c1)c1cc[n+]2Cc2ccc(cc2)Cc2ccc(cc2)C[n+]2ccc(c3ccccc32)NCc2ccc(cc2)Cc2ccc(cc2)CN1 | 0.31
c1cc2cc(c1)C[n+]1ccc(c3ccccc31)NCc1ccc(cc1)CNc1cc[n+](c3ccccc13)C2 | 0.01

Give the measured EMR of `Nc1cc[n+](Cc2ccc3c(c2)Cc2cc(C[n+]4ccc(N)c5ccccc54)ccc2-3)c2ccccc12` . 0.33

Which EMR value is on record for `Nc1cc[n+](Cc2ccc(CCc3ccc(C[n+]4ccc(N)c5ccccc54)cc3)cc2)c2ccccc12` ? 0.71
